The following sequences are listed with their measured PBM binding z-score values.
# System: PPARg:RXRa DBDmut IVT, anti-RXR (DBD mutation: RXRa K156A/R161A, NR concentration 270 nM, RXRa partner concentration 90 nM)
# TEST PROTOCOL: PBM binding z-score (relative to random genomic background probes); higher = stronger binding; sequences stand for … in GC…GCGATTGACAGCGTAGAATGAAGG
MEASURE: PBM binding z-score

1) ATCTCTTGGTAAAAGTTCAGTGAATCCCGAGGAT :: -0.122
2) GCTACTGGGGCAAAGCAGGTTACCATAAGGTTGG :: 6.4
3) TCATATAGGTAAACAGGGGAAAGTCCGTAAGTTA :: 4.67
4) TCTAGCAGGACAGAGGGTCACTCAAGAGGTACGG :: 0.809
5) AGTCAAAGTTCATTTAGGTAACGTAAGATATGCT :: 0.638
6) ACTGGCAGGCCAAGTTTGGGTCACTCAAACAAAG :: -0.444
7) ACTAGCAGGCCAAGTTTGGATCACTCAAACAAAG :: 0.238
8) AGCCAAAGTTCACTAGGTAACGTAAGATTCAGCT :: 2.5
9) ATCGAAAGGTCGATGTGAGTATAGAGAAAGGGAA :: 0.226
10) TCAGCTAGGTCAGTTGGTCAGCTAACGAGCTGCC :: 2.84
11) CGTCAAAGTTCAAGGTAAGGTAACAGAAAGCAGC :: 0.198
12) GCTTGTAGATCAAAGTTAAGAAAGACTAAGCTAA :: 0.918
